# system-name: UniProt P51531
# Sequence (P51531 whole entry): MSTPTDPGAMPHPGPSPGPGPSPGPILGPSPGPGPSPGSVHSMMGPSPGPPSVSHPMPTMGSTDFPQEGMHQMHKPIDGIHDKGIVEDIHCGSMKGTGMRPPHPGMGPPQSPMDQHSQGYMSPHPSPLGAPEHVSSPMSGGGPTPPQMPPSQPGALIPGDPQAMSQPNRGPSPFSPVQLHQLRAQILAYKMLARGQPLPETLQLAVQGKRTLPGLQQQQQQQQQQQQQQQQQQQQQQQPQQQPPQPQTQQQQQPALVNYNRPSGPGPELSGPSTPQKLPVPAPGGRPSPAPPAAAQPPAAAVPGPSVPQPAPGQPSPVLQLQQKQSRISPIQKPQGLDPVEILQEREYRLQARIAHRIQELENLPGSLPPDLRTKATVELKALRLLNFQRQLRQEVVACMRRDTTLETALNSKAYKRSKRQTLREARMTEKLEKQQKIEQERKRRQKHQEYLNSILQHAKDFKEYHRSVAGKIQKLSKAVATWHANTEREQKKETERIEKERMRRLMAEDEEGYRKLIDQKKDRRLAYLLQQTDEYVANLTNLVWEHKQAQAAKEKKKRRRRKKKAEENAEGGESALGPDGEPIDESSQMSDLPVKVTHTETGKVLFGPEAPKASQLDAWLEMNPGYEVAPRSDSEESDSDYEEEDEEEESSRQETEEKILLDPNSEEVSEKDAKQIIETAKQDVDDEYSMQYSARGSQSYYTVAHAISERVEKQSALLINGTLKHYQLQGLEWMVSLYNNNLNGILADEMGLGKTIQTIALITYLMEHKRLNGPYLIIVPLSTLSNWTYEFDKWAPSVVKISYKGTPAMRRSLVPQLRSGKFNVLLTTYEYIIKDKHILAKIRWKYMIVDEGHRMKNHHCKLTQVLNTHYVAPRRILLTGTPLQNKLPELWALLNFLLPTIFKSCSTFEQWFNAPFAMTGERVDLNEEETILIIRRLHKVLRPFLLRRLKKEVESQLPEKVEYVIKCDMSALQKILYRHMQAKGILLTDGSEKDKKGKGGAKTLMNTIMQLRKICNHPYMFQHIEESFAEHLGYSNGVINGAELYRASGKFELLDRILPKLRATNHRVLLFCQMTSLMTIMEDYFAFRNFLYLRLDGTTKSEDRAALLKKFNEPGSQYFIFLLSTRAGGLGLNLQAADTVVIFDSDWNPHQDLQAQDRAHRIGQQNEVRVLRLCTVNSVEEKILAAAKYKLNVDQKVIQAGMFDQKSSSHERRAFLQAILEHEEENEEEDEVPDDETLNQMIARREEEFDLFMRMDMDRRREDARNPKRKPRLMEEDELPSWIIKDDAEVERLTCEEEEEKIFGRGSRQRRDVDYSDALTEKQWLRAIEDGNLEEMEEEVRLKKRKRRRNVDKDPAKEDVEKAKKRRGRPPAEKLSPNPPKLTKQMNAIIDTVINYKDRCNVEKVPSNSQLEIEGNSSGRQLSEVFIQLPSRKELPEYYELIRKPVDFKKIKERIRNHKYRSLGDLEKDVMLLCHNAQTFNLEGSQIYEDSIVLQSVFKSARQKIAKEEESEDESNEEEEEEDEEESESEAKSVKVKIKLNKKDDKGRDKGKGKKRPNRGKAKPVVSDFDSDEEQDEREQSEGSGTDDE
# test-description: SMARCA2 degradation in HeLa cells (Western blot)
# Format: cell-based
# Set-up: endogenous in cells
# condition-parameters: 1 nM, 4 hours
Recorded Degradation rate of SMARCA2 in HeLa cells (%) for the following molecules
assay-metric: Degradation rate of SMARCA2 in HeLa cells (%)

1) Cn1c(=O)n(C2CCC(=O)NC2=O)c2ccc3c(c21)OCC31CCN(C(=O)[C@H]2CC[C@H](Cn3cc(-c4cc(-c5ccccc5O)nnc4N)cn3)CC2)CC1 (stereo partly drawn) [SM-P-27] : 51%
2) Nc1nnc(-c2ccccc2O)cc1C#CC1CCC2(CC1)CC(N1CCC3(CC1)CCC1(CC3)COc3c1ccc1c3CN(C3CCC(=O)NC3=O)C1=O)C2 (stereo not drawn) [SM-P-2] : 95%
3) Cn1c(=O)n(C2CCC(=O)NC2=O)c2cc3c(cc21)C1(CCN(C[C@H]2CC[C@H](n4cc(-c5cc(-c6ccccc6O)nnc5N)cn4)CC2)CC1)CO3 (stereo partly drawn) [SM-P-36] : 99%
4) Cn1c(=O)n(C2CCC(=O)NC2=O)c2ccc3c(c21)OCC31CCN(C2CN(c3cc(-c4ccccc4O)nnc3N)C2)CC1 (stereo not drawn) [SM-P-37] : 24%
5) Nc1nnc(-c2ccccc2O)cc1C#CC1CCC2(CC1)CC(N1CCC3(CCc4cc(F)c(C(=O)N[C@H]5CCC(=O)NC5=O)cc4O3)CC1)C2 (stereo partly drawn) [SM-P-12] : 6%
6) Nc1nnc(-c2ccccc2O)cc1C#CC1CCC2(CC1)CC(N1CCN3c4ccc(C(=O)N[C@H]5CCC(=O)NC5=O)cc4OC[C@@H]3C1)C2 (stereo partly drawn) [SM-P-20] : 23%
7) Nc1nnc(-c2ccccc2O)cc1C#CC1CCC2(CC1)CC(N1CCC3(CC1)COc1cc(C(=O)N[C@H]4CCC(=O)NC4=O)c(F)cc13)C2 (stereo partly drawn) [SM-P-8] : 28%
8) Cn1c(=O)n(C2CCC(=O)NC2=O)c2ccc3c(c21)OCC31CCN(C2CC3(CCC(C#Cc4cc(-c5ccccc5O)nnc4N)CC3)C2)CC1 (stereo not drawn) [SM-P-26] : 100%
9) Cn1c(=O)n(C2CCC(=O)NC2=O)c2cc3c(cc21)C1(CCN(C2CN(c4cc(-c5ccccc5O)nnc4N)C2)CC1)CO3 (stereo not drawn) [SM-P-38] : -6%
10) Cn1c(=O)n(C2CCC(=O)NC2=O)c2cc3c(cc21)OC1(CC3)CCN(C2CC3(CCC(C#Cc4cc(-c5ccccc5O)nnc4N)CC3)C2)CC1 (stereo not drawn) [SM-P-1] : 90%
11) Nc1nnc(-c2ccccc2O)cc1C#CC1CCC2(CC1)CC(N1CCC3(CC1)COc1cc(F)c(C(=O)N[C@H]4CCC(=O)NC4=O)cc13)C2 (stereo partly drawn) [SM-P-21] : 15%
12) Nc1nnc(-c2ccccc2O)cc1C#CC1CCC2(CC1)CC(N1CCC3(CC1)COc1c3ccc(F)c1C(=O)N[C@H]1CCC(=O)NC1=O)C2 (stereo partly drawn) [SM-P-19] : 14%

* * *

# system-name: SMARCA4 (Homo sapiens)
# Sequence (P51532 whole entry): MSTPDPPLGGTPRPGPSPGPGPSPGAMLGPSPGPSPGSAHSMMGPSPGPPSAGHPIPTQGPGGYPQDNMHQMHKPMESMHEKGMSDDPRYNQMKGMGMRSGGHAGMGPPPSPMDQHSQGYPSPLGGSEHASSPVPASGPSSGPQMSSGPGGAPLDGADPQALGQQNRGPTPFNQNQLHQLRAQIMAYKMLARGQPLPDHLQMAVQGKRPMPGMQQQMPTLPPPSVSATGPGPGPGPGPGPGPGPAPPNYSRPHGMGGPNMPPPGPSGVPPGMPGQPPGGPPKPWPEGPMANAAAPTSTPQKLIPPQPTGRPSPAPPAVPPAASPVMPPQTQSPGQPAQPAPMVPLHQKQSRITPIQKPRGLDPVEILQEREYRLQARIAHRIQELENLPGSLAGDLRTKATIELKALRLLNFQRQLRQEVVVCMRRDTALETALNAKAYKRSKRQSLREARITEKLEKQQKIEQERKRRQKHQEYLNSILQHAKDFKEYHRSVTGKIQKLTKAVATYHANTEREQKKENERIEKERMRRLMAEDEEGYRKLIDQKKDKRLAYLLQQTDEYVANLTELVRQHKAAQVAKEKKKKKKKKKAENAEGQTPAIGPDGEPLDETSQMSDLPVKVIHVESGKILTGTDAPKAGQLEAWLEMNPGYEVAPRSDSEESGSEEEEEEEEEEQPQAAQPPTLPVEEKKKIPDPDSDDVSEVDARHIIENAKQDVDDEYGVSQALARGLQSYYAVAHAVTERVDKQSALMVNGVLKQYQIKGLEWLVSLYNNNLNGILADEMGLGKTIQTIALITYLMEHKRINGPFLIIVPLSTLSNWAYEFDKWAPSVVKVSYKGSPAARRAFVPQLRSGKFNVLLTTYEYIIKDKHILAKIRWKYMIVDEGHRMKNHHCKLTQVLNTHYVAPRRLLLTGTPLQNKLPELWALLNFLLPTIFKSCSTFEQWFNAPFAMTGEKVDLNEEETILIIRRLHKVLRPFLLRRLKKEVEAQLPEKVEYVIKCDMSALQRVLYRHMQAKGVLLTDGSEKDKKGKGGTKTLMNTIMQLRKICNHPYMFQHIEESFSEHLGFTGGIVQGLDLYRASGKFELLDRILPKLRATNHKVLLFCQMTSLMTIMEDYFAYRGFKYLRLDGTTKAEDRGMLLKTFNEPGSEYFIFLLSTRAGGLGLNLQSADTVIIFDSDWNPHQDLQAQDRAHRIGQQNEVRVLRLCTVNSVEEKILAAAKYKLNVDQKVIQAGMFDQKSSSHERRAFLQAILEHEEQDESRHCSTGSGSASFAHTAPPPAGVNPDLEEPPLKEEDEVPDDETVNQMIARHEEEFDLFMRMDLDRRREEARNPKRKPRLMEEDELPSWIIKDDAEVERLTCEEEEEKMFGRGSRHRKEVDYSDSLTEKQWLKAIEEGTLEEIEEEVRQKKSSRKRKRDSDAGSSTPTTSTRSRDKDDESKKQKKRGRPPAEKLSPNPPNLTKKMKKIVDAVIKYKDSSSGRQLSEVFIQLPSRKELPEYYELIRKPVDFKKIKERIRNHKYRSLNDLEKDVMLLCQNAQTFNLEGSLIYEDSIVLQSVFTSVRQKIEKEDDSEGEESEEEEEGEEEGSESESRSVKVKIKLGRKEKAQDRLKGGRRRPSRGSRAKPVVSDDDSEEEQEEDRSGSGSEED
# test-description: SMARCA4 degradation in SW1573 cells (Western blot)
# Assay type: cell-based
# Parameters: endogenous in cells; host or cells: SW1573
# condition-parameters: 1 nM, 24 hours
assay-metric: Degradation rate of SMARCA4 in SW1573 cells (%)

1. Nc1nnc(-c2ccccc2O)cc1C#CC1CCC2(CC1)CC(N1CCC3(CC1)COc1c3ccc(F)c1C(=O)N[C@H]1CCC(=O)NC1=O)C2 (some centres unmarked) : 1
2. Nc1nnc(-c2ccccc2O)cc1C#CC1CCC2(CC1)CC(N1CCN3c4ccc(C(=O)N[C@H]5CCC(=O)NC5=O)cc4OC[C@@H]3C1)C2 (some centres unmarked) : -56
3. Cc1ncsc1-c1ccc([C@H](C)NC(=O)[C@@H]2C[C@@H](O)CN2C(=O)[C@@H](NC(=O)[C@H]2CC[C@H](CN3CC4(CCC(n5cc(-c6cc(-c7ccccc7O)nnc6N)cn5)CC4)C3)CC2)C(C)(C)C)cc1 [SMD-3040, reference compound] : 21
4. Nc1nnc(-c2ccccc2O)cc1C#CC1CCC2(CC1)CC(N1CCN3c4cc(F)c(C(=O)N[C@H]5CCC(=O)NC5=O)cc4OC[C@H]3C1)C2 (some centres unmarked) : -30
5. Nc1nnc(-c2ccccc2O)cc1C#CC1CCC2(CC1)CC(N1CCN3c4ccc(C(=O)N[C@H]5CCC(=O)NC5=O)cc4OCC[C@H]3C1)C2 (some centres unmarked) : -11

Where do these numbers come from? They come from patent EP4722219A1.
